Sourced from paper PMC7792806

# Tested on: SIRT5 (Homo sapiens, UniProt Q9NXA8)
# Sequence (Q9NXA8 34-302): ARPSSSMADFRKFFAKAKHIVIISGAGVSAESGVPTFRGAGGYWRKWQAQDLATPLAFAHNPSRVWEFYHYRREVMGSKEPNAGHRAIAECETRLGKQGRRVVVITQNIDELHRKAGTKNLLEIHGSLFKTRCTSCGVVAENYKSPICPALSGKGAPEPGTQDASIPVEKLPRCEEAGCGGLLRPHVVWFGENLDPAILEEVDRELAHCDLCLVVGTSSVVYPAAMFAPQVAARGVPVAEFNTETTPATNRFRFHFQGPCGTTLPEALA
Readout: IC50

Task: Form entry - test system: SIRT5 (Homo sapiens, UniProt Q9NXA8); read-out: IC50; compound: C#CCOc1ccc(C(=O)c2ccc(C(=O)N[C@@H](CCCCNC(=S)CCCCCCCCCCCCC)C(=O)N[C@@H](C)C(=O)N[C@@H](C)C(=O)OC)cc2)cc1 [Probe 1C, reference compound]
Result: > 5 mM
